B1: Pituitary-specific positive transcription factor 1, residues 130 to 198; numbered along this chain, P28069 (parent)
chain: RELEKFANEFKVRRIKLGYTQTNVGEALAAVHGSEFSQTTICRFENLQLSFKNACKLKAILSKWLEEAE

- Variants of: B1
- Protocol: abundance fitness (aPCA) (normalised: wild type 0, dead -1); higher = more abundant; growth selection in yeast, the domain comes from the species named
- Experimental Parameters: Homo sapiens
Everything with abundance fitness lower than -0.5 is criterion not met; everything else, including exactly -0.5, is criterion met.

Q: Tell me whether abundance fitness is at least -0.5 here: V12R
A: criterion met

Q: API: above_or_equal(metric=abundance fitness, cutoff=-0.5) for item S37I
A: criterion not met

Q: Reported abundance fitness at or above -0.5? E67C
A: criterion met

Q: Kindly determine if abundance fitness recorded for S34V is above or exactly -0.5.
A: criterion met

Q: hey, is abundance fitness for this one >= -0.5? I15S
A: criterion met

Q: I'd appreciate it if you could say whether R1V has abundance fitness at least equal to -0.5.
A: criterion met

Q: Does abundance fitness meet or surpass -0.5 for G25S ?
A: criterion met

Q: abundance fitness >= -0.5 for E67Q ?
A: criterion met

Q: Test whether the variant F6D records abundance fitness of -0.5 or higher.
A: criterion not met

Q: Record V12Q ; criterion: abundance fitness no lower than -0.5. Met?
A: criterion met

Q: Check this variant for abundance fitness at or above -0.5: A29R
A: criterion met

Q: Please check the record F10H and state if its abundance fitness is at or above -0.5.
A: criterion not met

Q: Hi, just wondering whether R13P shows abundance fitness of -0.5 or higher.
A: criterion not met

Q: Hi, just wondering whether A27F shows abundance fitness of -0.5 or higher.
A: criterion met

Q: Reported abundance fitness at or above -0.5? C55S
A: criterion met

Q: Decide: is the reported value of abundance fitness for K63E equal to or greater than -0.5?
A: criterion met

Q: Would you say K5A shows abundance fitness at minimum -0.5?
A: criterion met

Q: Decide: is the reported value of abundance fitness for K11L equal to or greater than -0.5?
A: criterion not met

Q: Is abundance fitness for K56L at or above -0.5?
A: criterion met

Q: Record N46Y ; criterion: abundance fitness no lower than -0.5. Met?
A: criterion not met

Q: Determine whether measured abundance fitness meets or exceeds -0.5 for F36H
A: criterion not met

Q: Does the variant E9K have recorded abundance fitness that is -0.5 or more?
A: criterion met

Numbers sourced from the Human Domainome abundance scans (Beltran et al. 2025).
